Target: ATP-binding cassette sub-family C member 8 (Rattus norvegicus) (UniProt Q09429)
Sequence (Q09429 whole entry): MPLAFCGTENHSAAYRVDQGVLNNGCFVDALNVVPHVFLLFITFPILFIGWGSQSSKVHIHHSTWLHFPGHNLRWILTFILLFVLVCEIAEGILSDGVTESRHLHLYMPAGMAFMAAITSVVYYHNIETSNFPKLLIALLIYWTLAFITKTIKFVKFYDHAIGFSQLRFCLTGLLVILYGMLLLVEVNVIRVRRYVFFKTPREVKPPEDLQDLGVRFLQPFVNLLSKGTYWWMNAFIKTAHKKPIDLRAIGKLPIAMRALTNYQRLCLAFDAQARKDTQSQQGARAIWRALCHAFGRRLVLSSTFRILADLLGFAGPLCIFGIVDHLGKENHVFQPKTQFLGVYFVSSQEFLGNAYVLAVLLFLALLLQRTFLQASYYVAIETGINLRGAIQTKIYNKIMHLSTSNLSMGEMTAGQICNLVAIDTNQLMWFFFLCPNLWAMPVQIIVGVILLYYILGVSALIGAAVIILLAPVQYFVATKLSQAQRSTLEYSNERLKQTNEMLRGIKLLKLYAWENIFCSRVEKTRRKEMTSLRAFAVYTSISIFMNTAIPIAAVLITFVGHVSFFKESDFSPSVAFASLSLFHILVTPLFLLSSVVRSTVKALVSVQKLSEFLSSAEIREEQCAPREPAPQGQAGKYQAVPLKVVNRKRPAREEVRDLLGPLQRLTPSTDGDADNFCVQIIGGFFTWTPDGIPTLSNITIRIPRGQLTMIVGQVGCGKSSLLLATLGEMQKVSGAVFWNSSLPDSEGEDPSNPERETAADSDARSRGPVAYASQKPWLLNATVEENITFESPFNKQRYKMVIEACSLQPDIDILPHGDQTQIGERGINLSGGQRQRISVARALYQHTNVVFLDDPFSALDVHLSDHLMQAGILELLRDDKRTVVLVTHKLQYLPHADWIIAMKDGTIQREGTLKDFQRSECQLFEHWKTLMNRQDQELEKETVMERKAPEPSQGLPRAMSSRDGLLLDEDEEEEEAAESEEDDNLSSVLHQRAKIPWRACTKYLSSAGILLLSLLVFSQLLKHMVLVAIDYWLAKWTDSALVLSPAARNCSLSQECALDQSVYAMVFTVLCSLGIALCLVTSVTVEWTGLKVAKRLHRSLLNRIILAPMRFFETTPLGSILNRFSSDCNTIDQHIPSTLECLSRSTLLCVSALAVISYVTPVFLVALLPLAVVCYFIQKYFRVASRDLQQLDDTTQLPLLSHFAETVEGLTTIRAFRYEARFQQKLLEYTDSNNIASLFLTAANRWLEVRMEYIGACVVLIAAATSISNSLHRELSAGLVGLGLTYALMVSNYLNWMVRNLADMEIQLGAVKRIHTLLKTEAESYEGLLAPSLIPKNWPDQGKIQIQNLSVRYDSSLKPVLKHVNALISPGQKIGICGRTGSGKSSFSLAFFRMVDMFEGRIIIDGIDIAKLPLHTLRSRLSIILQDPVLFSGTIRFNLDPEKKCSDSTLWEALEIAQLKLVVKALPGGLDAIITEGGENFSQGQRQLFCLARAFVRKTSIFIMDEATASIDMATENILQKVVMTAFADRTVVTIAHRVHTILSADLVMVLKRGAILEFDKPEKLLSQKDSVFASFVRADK
Experiment: Activation of SUR1 in rat pancreatic islets assessed as residual insulin release at 10 uM in presence of 16.7 mM glucose
Label Satisfied when Activity is at or above 9%; otherwise label Not satisfied.

Please review the following examples before continuing.
C[C@@H](CO)NC1=NS(=O)(=O)c2ccc(Br)cc2N1 = Satisfied
CC(CO)NC1=NS(=O)(=O)c2cc(Cl)ccc2N1 (racemic) = Satisfied
C[C@H](CO)NC1=NS(=O)(=O)c2cc(Cl)ccc2N1 = Not satisfied
CC(=O)OCC(C)NC1=NS(=O)(=O)c2cc(Cl)ccc2N1 (racemic) = Satisfied
COc1cc2c(cc1Cl)NC(N[C@H](C)CO)=NS2(=O)=O = Satisfied
COc1ccc2c(c1)S(=O)(=O)NC(NC(C)C)=N2 = Not satisfied

Exam item: decide whether the reported Activity for CC(CO)NC1=NS(=O)(=O)c2ccc(Cl)cc2N1 (racemic) is at least 9%.
Satisfied

Same read-out for COc1ccc2c(c1)S(=O)(=O)N=C(NC(C)CO)N2 (racemic) ?
Satisfied

Same read-out for `C[C@H](CO)NC1=NS(=O)(=O)c2ccc(Cl)cc2N1` ?
Not satisfied

Same read-out for CC(CO)NC1=NS(=O)(=O)c2cc(F)ccc2N1 (racemic) ?
Satisfied
